Provide the recorded MICantibiotic [MICcombo] for the entries that follow.
# Test system: P. aeruginosa PA259-96196
# Format: cell-based, Pseudomonas aeruginosa
# Condition Set: novobiocin in combination with the UTBLP
Non-standard residues stand in square brackets, D forms with d. Residues, ends and D or L forms follow the SMILES beside them. *: point of attachment. Lys(Me2) = CN(C)CCCC[C@H](N)C(=O)O; Lys(Me) = CNCCCC[C@H](N)C(=O)O; Octanoyl = CCCCCCCC(=O)*
Give bare numbers, in µg/mL.

Here are 3 compounds together with their reported answers.
Compound	MICantibiotic [MICcombo], µg/mL
CCCCCCCC(=O)NCCCC[C@H](NC(=O)CCCCCCC)C(=O)N[C@@H](CCCCNC)C(=O)N[C@@H](CCCCNC)C(=O)N[C@@H](CCCCNC)C(=O)N[C@@H](CCCCNC)C(N)=O [UTBLP 6] (Octanoyl-K(Octanoyl)[Lys(Me)][Lys(Me)][Lys(Me)][Lys(Me)]-NH2)	128
CCCCCCCC(=O)NCCCC[C@H](NC(=O)CCCCCCC)C(=O)N[C@@H](CCCCN)C(=O)N[C@@H](CCCCN)C(=O)N[C@@H](CCCCN)C(=O)N[C@@H](CCCCN)C(N)=O [UTBLP 5] (Octanoyl-K(Octanoyl)KKKK-NH2)	16
CCCCCCCC(=O)N[C@@H](CCCCNC)C(=O)NCCCN(CCCNC(=O)[C@H](CCCCNC)NC(=O)CCCCCCC)CC(=O)N[C@@H](CCCCNC)C(N)=O [UTBLP 2]	512

Then there is this compound:
Q: # get_value(readout= MICantibiotic [MICcombo], system= P. aeruginosa PA259-96196) for CCCCCCCC(=O)NCCCC[C@H](NC(=O)CCCCCCC)C(=O)N[C@@H](CCCCN(C)C)C(=O)N[C@@H](CCCCN(C)C)C(=O)N[C@@H](CCCCN(C)C)C(=O)N[C@@H](CCCCN(C)C)C(N)=O [UTBLP 7] (Octanoyl-K(Octanoyl)[Lys(Me2)][Lys(Me2)][Lys(Me2)][Lys(Me2)]-NH2)
Result: 512

====

# Tested on: K. pneumoniae 113250
# Type: cell-based, Klebsiella pneumoniae
# Condition Set: UTBLP in combination with novobiocin
Non-standard residues stand in square brackets, D forms with d. Residues, ends and D or L forms follow the SMILES beside them. *: point of attachment. Lys(Me3) = C[N+](C)(C)CCCC[C@H](N)C(=O)O; Lys(Me2) = CN(C)CCCC[C@H](N)C(=O)O; Lys(Me) = CNCCCC[C@H](N)C(=O)O; Octanoyl = CCCCCCCC(=O)*
Reported Property: MICUTBLP [MICcombo]

Compound	Result
CCCCCCCC(=O)NCCCC[C@H](NC(=O)CCCCCCC)C(=O)N[C@@H](CCCCN)C(=O)N[C@@H](CCCCN)C(=O)N[C@@H](CCCCN)C(=O)N[C@@H](CCCCN)C(N)=O [UTBLP 5] (Octanoyl-K(Octanoyl)KKKK-NH2)	16 µg/mL

Go through the items and report each one's MICUTBLP [MICcombo].
1. CCCCCCCC(=O)NCCCC[C@H](NC(=O)CCCCCCC)C(=O)N[C@@H](CCCCNC)C(=O)N[C@@H](CCCCNC)C(=O)N[C@@H](CCCCNC)C(=O)N[C@@H](CCCCNC)C(N)=O [UTBLP 6] (Octanoyl-K(Octanoyl)[Lys(Me)][Lys(Me)][Lys(Me)][Lys(Me)]-NH2)
2. CCCCCCCC(=O)N[C@@H](CCCCNC)C(=O)NCCCN(CCCNC(=O)[C@H](CCCCNC)NC(=O)CCCCCCC)CC(=O)N[C@@H](CCCCNC)C(N)=O [UTBLP 2]
3. CCCCCCCC(=O)NCCCC[C@H](NC(=O)CCCCCCC)C(=O)N[C@@H](CCCCN(C)C)C(=O)N[C@@H](CCCCN(C)C)C(=O)N[C@@H](CCCCN(C)C)C(=O)N[C@@H](CCCCN(C)C)C(N)=O [UTBLP 7] (Octanoyl-K(Octanoyl)[Lys(Me2)][Lys(Me2)][Lys(Me2)][Lys(Me2)]-NH2)
4. CCCCCCCC(=O)N[C@@H](CCCCN)C(=O)NCCCN(CCCNC(=O)[C@H](CCCCN)NC(=O)CCCCCCC)CC(=O)N[C@@H](CCCCN)C(N)=O [UTBLP 1]

Result:
1: 16 µg/mL; 2: 16 µg/mL; 3: 8 µg/mL; 4: 8 µg/mL

Q: For the compound CCCCCCCC(=O)NCCCC[C@H](NC(=O)CCCCCCC)C(=O)N[C@@H](CCCC[N+](C)(C)C)C(=O)N[C@@H](CCCC[N+](C)(C)C)C(=O)N[C@@H](CCCC[N+](C)(C)C)C(=O)N[C@@H](CCCC[N+](C)(C)C)C(N)=O [UTBLP 8] (Octanoyl-K(Octanoyl)[Lys(Me3)][Lys(Me3)][Lys(Me3)][Lys(Me3)]-NH2) , what MICUTBLP [MICcombo] is on record?
Result: 16 µg/mL
